Molecular target: T1, Recombinant human MASP1 enzyme (fragment corresponding to amino acids 297-699, C-terminal His Tag) (human, UniProt P48740 297-699)
T1 sequence: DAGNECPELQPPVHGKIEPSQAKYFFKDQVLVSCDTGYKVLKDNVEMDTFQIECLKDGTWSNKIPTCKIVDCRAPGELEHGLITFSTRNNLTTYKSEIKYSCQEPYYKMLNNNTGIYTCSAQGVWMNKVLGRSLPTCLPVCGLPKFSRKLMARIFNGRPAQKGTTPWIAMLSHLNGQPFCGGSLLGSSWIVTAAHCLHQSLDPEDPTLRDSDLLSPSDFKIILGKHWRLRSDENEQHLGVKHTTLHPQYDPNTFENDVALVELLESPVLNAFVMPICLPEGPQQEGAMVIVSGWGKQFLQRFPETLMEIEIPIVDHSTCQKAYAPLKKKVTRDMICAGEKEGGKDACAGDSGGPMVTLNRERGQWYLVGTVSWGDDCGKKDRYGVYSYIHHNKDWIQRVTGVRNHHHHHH
Experiment: cell-based or functional assay
Bridge positions count the residues as written; N and C are the ends. Square brackets hold non-standard residues; d marks the D form. Primed or numbered codes have the meaning given here. * marks the point of attachment. Tranexamic″ = tranexamic acid, NC[C@H]1CC[C@@H](C(=O)*)CC1; tBuAla = CC(C)(C)C[C@H](N)C(=O)O; Pen = CC(C)(S)[C@H](N)C(=O)O; PEG2 = NCCOCCOCCC(=O)O
endpoint label: human MASP1 IC50

State, in one line, measured human MASP1 IC50 of {Tranexamic″}-ICSRS[tBuAla]PPI[Pen]IP-{PEG2-NH2} (disulfide 2-10; SMILES CC[C@H](C)[C@@H]1NC(=O)[C@@H]2CCCN2C(=O)[C@@H]2CCCN2C(=O)[C@H](CC(C)(C)C)NC(=O)[C@H](CO)NC(=O)[C@H](CCCNC(=N)N)NC(=O)[C@H](CO)NC(=O)[C@@H](NC(=O)[C@@H](NC(=O)[C@H]2CC[C@@H](CN)CC2)[C@@H](C)CC)CSSC(C)(C)[C@@H](C(=O)N[C@H](C(=O)N2CCC[C@H]2C(=O)NCCOCCOCCC(N)=O)[C@@H](C)CC)NC1=O) [(Tranexamic)-IC+SRS-((tBu)A)-PPI-(Pen)+IP-(PEG1(10 atoms))-NH2]
6.5 nM
